biological target: T1, human IL6R-Fc protein (human, biotin-labeled in the ELISAs (sites not given)); experiment: ligand blocking ELISA: antibody pre-incubated with biotin-labeled human IL6R-Fc, added to plate-coated human IL6 (blocked ligand: human IL6)
T1 construct: In house made; also called biotin-labeled human IL6R-Fc protein
T1 sequence (chain, as listed by the source limits assumed): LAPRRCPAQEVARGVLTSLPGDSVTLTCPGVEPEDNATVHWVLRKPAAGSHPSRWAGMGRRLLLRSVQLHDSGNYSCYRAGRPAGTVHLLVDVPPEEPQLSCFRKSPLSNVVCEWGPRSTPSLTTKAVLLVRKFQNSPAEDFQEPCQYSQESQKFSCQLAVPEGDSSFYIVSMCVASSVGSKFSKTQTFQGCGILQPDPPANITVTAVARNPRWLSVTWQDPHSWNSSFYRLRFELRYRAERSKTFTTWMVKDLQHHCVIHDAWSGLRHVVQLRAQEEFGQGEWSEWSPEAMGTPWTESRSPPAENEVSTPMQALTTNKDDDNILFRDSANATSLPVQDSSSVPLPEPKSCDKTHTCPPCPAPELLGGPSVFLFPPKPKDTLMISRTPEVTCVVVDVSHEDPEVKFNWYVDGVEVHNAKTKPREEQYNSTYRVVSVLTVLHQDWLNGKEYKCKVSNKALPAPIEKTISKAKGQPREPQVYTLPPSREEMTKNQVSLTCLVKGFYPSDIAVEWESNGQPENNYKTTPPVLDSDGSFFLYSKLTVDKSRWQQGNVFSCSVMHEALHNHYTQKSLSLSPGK
Reported IC50 values are given for each entry in this list.
Measurement kind: IC50 (nM)

INSERT INTO measurements (binder, measurement_kind, value_observed) VALUES
  ('Chimeric 1B5 (antibody, human IgG1, kappa, V domains shown, Mouse variable regions on human IgG1 / human kappa constant regions; also called chimeric antibody 1B5) VH: QVQLQQPGAELVKPGASVKLSCKASGYTFTSYWMHWVKQRPGQGLEWIGEINPSNGRTNYNENFKSKATLTVDKSSSTAYMQLSSLTSEDSAVYYCARLNTHYVFDYWGQGTTLTVSS VL: EIVLTQSPTILAASPGEKITFTCSVSSSISSNYLHWYQQKPGFSPKLLIYRTSNLASGVPARFSGSGSGTSYSLTIGTMEAEDVATYYCQQGSGIPFTFGSGTKLEIKR', 'IC50', 0.299),
  ('mouse anti-IL6R monoclonal antibody 1H7 (antibody, V domains shown, Mouse hybridoma mAb) VH: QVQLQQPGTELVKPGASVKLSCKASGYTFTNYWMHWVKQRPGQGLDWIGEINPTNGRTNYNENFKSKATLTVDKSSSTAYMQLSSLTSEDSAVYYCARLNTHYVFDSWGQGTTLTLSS VL: EIVLTQSPTTLAASPGEKITFTCSVSSSISSNYLHWYQQKPGFSPKLLISRTSTLASGVPARFSGSGSGTSYSLTIGTMEAEDVATYYCQQGSGIPFTFGSGTKLELK', 'IC50', 0.231),
  ('mouse anti-IL6R monoclonal antibody 1B5 (antibody, V domains shown, Mouse hybridoma mAb) VH: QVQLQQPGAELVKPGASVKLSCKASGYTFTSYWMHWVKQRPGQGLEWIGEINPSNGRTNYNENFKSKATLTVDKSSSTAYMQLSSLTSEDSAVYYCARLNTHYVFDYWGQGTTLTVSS VL: EIVLTQSPTILAASPGEKITFTCSVSSSISSNYLHWYQQKPGFSPKLLIYRTSNLASGVPARFSGSGSGTSYSLTIGTMEAEDVATYYCQQGSGIPFTFGSGTKLEIK', 'IC50', 0.281),
  ('Tocilizumab (antibody, human IgG1, kappa, V domains shown, In house made; also called benchmark; Actemra) VH: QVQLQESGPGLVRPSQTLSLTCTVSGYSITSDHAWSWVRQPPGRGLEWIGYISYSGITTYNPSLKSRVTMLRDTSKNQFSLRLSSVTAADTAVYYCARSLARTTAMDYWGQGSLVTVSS VL: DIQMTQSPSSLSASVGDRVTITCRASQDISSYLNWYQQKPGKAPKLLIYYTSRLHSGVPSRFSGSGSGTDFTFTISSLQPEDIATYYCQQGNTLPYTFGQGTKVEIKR', 'IC50', 0.773);
